# System: MAP3K2;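 further: KINOMEscan kinase panel screen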
# experimentalParameters: concentration: 1 μM, replicates: in singlicate; n = 1
readoutLabel: %Inh (%)
Quick note: give the figure in %, leave out the unit.

Consider the worked cases shown below.
CN1C(=O)C(Nc2cc(Cl)c(O)c(Cl)c2)=C(c2ccc(Cl)cc2)C1=O [SB-404321] | 0
Cc1nc(N(C)[C@H]2CN(C(=O)CC#N)CC[C@H]2C)c2cc[nH]c2n1 | 10
Fc1cccc(CSc2nnc(-c3ccc4c(c3)CCO4)o2)c1 | 2
O=C1NC(=O)C(c2ccccc2)=C1Nc1cccc(O)c1 [SB-390534] | 4

// next entry
In: Dear colleague, I am looking for the recorded %Inh of the following compound: `COc1ccc(-c2cc3c(C)nc(N)nc3n([C@H]3CC[C@H](O)CC3)c2=O)cn1`
Out: 0
